Collected IC50 values appear next to each entry.
Target: human recombinant Btk (Homo sapiens, UniProt Q06187)
Sequence (Q06187 whole entry): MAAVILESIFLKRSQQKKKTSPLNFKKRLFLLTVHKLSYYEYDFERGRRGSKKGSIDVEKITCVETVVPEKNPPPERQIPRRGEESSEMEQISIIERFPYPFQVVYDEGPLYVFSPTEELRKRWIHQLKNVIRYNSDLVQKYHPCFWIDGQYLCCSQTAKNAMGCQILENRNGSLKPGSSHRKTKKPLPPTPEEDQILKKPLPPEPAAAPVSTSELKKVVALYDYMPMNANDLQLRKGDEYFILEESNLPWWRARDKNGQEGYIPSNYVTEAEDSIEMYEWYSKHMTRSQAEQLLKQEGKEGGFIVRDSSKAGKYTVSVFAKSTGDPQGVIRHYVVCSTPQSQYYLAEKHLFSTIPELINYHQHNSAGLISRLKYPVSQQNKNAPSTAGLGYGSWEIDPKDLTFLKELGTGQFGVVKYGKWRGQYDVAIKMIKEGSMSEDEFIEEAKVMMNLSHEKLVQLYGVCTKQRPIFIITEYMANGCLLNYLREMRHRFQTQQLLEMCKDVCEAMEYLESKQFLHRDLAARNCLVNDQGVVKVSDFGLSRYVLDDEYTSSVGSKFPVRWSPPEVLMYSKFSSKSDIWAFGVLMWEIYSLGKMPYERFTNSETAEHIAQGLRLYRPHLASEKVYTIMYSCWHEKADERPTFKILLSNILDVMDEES
Experiment: Btk enzymatic activity assay (Caliper-based kinase assay)
Format: biochemical
Conditions: human recombinant Btk 2 nM, ATP 40 μM, room temperature 3 h, compounds of Cpd Table 2

- Molecule: "CC(C)(C)C=C(C#N)C(=O)N1CCC(n2nc(-c3ccc(NC(=O)c4ccc(C(F)(F)F)cc4)cc3)c3c(N)ncnc32)CC1"
  Target: "human recombinant Btk (Homo sapiens, UniProt Q06187)"
  Value Units: "nM"
  Comparison Sign: ">"
  IC50: 1000
- Molecule: "CC(C)(C)C=C(C#N)C(=O)N1CCCC(n2nc(-c3ccc(NC(=O)c4ccc(C(F)(F)F)cc4)cc3)c3c(N)ncnc32)C1 (stereo not shown)"
  Target: "human recombinant Btk (Homo sapiens, UniProt Q06187)"
  Value Units: "nM"
  Comparison Sign: "="
  IC50: 13
- Molecule: "CC(C)(C)C=C(C#N)C(=O)NC1CCC(n2nc(-c3ccc(NC(=O)c4ccc(C(F)(F)F)cc4)cc3)c3c(N)ncnc32)CC1 (stereo not shown) [Table 2-8]"
  Target: "human recombinant Btk (Homo sapiens, UniProt Q06187)"
  Value Units: "nM"
  Comparison Sign: ">"
  IC50: 1000
- Molecule: "N#CC(=CC1CC1)C(=O)N1CCCC(n2nc(-c3ccc(NC(=O)c4ccc(C(F)(F)F)cc4)cc3)c3c(N)ncnc32)C1 (stereo not shown)"
  Target: "human recombinant Btk (Homo sapiens, UniProt Q06187)"
  Value Units: "nM"
  Comparison Sign: "="
  IC50: 62
- Molecule: "N#CC(=CC1CC1)C(=O)N1CCC(n2nc(-c3ccc(NC(=O)c4ccc(C(F)(F)F)cc4)cc3)c3c(N)ncnc32)CC1"
  Target: "human recombinant Btk (Homo sapiens, UniProt Q06187)"
  Value Units: "nM"
  Comparison Sign: ">"
  IC50: 1000
- Molecule: "CC(C)(C)C=C(C#N)C(=O)NC1CCC(n2nc(-c3ccc(NC(=O)c4ccc(C(F)(F)F)cc4)cc3)c3c(N)ncnc32)CC1 (stereo not shown) [Table 2-10]"
  Target: "human recombinant Btk (Homo sapiens, UniProt Q06187)"
  Value Units: "nM"
  Comparison Sign: ">"
  IC50: 1000
- Molecule: "CC(C)(C)C=C(C#N)C(=O)N1CCCC1Cn1nc(-c2ccc(NC(=O)c3ccc(C(F)(F)F)cc3)cc2)c2c(N)ncnc21 (stereo not shown)"
  Target: "human recombinant Btk (Homo sapiens, UniProt Q06187)"
  Value Units: "nM"
  Comparison Sign: "="
  IC50: 180

* * *

Target: human recombinant Btk (Homo sapiens)
Assay: Btk enzymatic activity assay (Caliper-based kinase assay)
Type: biochemical
Conditions: human recombinant Btk 2 nM, ATP 40 μM, room temperature 3 h, compounds of Cpd Table 1
The following compounds are shown together with reported IC50 values.

- Compound: "COc1cc(-c2nn(C3CCCN(C(=O)C(C#N)=CC4CC4)C3)c3ncnc(N)c23)ccc1Oc1ccc(Cl)c(Cl)c1 (stereo not shown)"
  IC50: "61 nM"
- Compound: "NC(=O)C(=CC1CC1)C(=O)N1CCC[C@@H](n2nc(-c3ccc(Oc4ccccc4F)cc3)c3c(N)ncnc32)C1 [Example 32A]"
  IC50: "1.7 nM"
- Compound: "COc1cc(-c2nn(C3CCN(C(=O)C(C#N)=CC(C)(C)C)CC3)c3ncnc(N)c23)ccc1Oc1ccc(Cl)c(Cl)c1"
  IC50: "980 nM"
- Compound: "COc1cc(-c2nn(C3CCN(C(=O)C(C#N)=CC4CC4)CC3)c3ncnc(N)c23)ccc1Oc1ccc(Cl)c(Cl)c1"
  IC50: "365 nM"
- Compound: "CC(C)(C)C=C(C#N)C(=O)N1CCCC(n2nc(-c3ccc(Oc4ccccc4)cc3)c3c(N)ncnc32)C1 (stereo not shown)"
  IC50: "1.3 nM"
- Compound: "N#CC(=CC1CC1)C(=O)NC1CCC(n2nc(-c3ccc(Oc4ccccc4)cc3)c3c(N)ncnc32)CC1 (stereo not shown)"
  IC50: "14 nM"
- Compound: "CC(Cn1nc(-c2ccc(Oc3ccccc3)cc2F)c2c(N)ncnc21)NC(=O)C(C#N)=CC(C)(C)N (stereo not shown)"
  IC50: "6 nM"
